assay-notes: yeast display, Sf9 membrane polyspecificity reagent, FACS + sequencing; frameworks hold sequencing errors
value-kind: polyreactivity (PSR sort gate)

QVQLVESGGGLVQAGGSLRLSCAASGRTFSVNAMGWYRQAPGKEREFVAAISKSGGSTYYADSVKGRFTISRDNAKNTVYLQMNSLKPEDTAVYYCAADSNSVYPFDYWGQGTQVTVSS : high polyreactivity
QVQLVESGGGLVQAGGSLRLSCAASGIIFYWNAMGWYRQAPGKERELVAGITRGGSTYYADSVKGRFTISRDNATNTVYLLMNSLKPEDTAVYYCAKRQASRRVSYSRYDYWGQGTQVTVSS : high polyreactivity

====

assay-notes: yeast display, Sf9 membrane polyspecificity reagent, FACS + sequencing; frameworks hold sequencing errors
value-kind: polyreactivity (PSR sort gate)

The following sequences have reported results that may help.
QVQLVESGGGLVQAGGSLRLSCAASGRISLGYAMGWYRQAPGKERELVAAITRGGTTSYAHSVKGRFTISRDNAKNTVYLQMNSLKPEDTAVYYCAVPAGYFGKWTYYYWGQGTQVTVSS : high polyreactivity
QVQLVESGGGLVQAGGSLRLSFAASGFIFYRYVMGWYRQAPGKERELVAAITWSGGSTYYADSVKGRFTISRDNAKNTVYLQMNSLKPEDTAVYYCNAESNLYFRYDYWGQGTQVTVSS : low polyreactivity
QVQLVESGGGLVQAGGSLRLSCAASGIIFSDYAMGWYRQAPGKERELVAAITGGGSTYYADSVKGRFTISRDNAKKTVDLQMNSLKPEDTAVFYCNADWARLWIRSTEVDYWGQGSQVTVSS : low polyreactivity
QVQLVESGGGLVQAGGSLRLSCAASGIIIYRYVMGWYRPAPGKERELVASISSSGGRTHYADSVKGRFTISRDNAKNTVYLQMNSLKPEDTAVYYCAAVQRSSFYRRYDYWGQGTQVTVSS : high polyreactivity
QDQHVESGGGLVQAGGSLPLSCADSGSIFPRNAMGWYRQAPGKERELVAAISRIGGSTYYADAVKGRFTISRDNAKNTVYLQMNSLKPEDTAVYYCAAPPSEWQHDYWGQGTQVTVSS : low polyreactivity

State the recorded polyreactivity (PSR sort gate) for every item in the following list.
1. QVQLVESGGGLLQAGGSLRLSCAASGIIFHYNAMGWYRQAPWKQRELVAAITSTDNTNYADSVKGRFTISRDNAKNTVYLQMNSLIAEATAVYYCNASVGRDSAYDYWGQGTQVTVSS
2. QVQLVDSGGGLVQAGGSLRLSSAASGRTFRYYTMGWYRQAPGKERELVAGISRSGANTYYADSVKGRFTISRDNAKNSVYLQMNSLKPEDTAVYYCNAVYGTYDWGQGTQVTVSS
3. QVQLVESGGGLVQAGGSLRLSCAASGRIFLGNVMGWYRQAPGKERELVAAISKSGGTTYYADSVKGRFTISRDNAKNTVYLQMNSLKPEDTAVYYCAAYGSWRTYHYYYWGQGTQVTVSS
4. KVQLVESGGGLVQAGGSLRLSCAASGNIFIPYAMGWYRQAPGKEREFVAVISTRGGSTYYADSLKGRFTISRDNAKNTVYLQMNSLKPEYTAVYYCAAGALGPRIKGWWFRRSFFYWGQGTQVTVSS
5. QVQLVESGGGLVQAGGSLRLSCAASGSIFSWYAMGWYRQAPGKERELVAAISGITGSTYYADSVKGRFTISRDNAKNTVYLQMNSLKPEDTAVYYCRALAGYASGMDYWGQGTQVTVSS
6. QVHLVESGGGLVQAGGSLRLSCAASGSTFYYYVMGWYRQAPGKERELVAAINISGGNTYYADSVKGRFTISRDNAKNTVYLKKNSLIPEDTAVYYCAADYRSSRTTEYYYWGQGTQVTVSS
7. QVQLVESGGGLVQAGGSLRLSCAASGFIFYGYTMGWYRQAPGKERELVARISRRGGSTYYADSVKGRFTISRDNAKNTVYLQMNSLKPEDTAVYYCAAELRRLFYAYGYWGQGTQVTVSS

["low polyreactivity", "high polyreactivity", "high polyreactivity", "high polyreactivity", "high polyreactivity", "low polyreactivity", "low polyreactivity"]

State the recorded polyreactivity (PSR sort gate) for every item in the following list.
1. QVQLVESGGCLVQAGGSLRLSCAASGRTFSPNAMGWYRQAPGKERELVAAISWISGGRTYYADSVKGRFTISRDNAKNTVYLQMNSLKPEDTAVYYCAAEYYYTYGYWGQGTQVTVSS
2. QVQLVESGGALVQAGGSHRLSCAASGSTFATYAMGWYRQAPGNEREFVAVITRGGRTYYADSVKGRFTISRDNAKITVYLQMNSLKPEDTAVYYCAAGSGNFVTRYRYGYWGQGTQVTVSS
3. QVQLVESGGGLVQAGGSLRLSCAASGNTFIPNAMGWSRQAPGKETELVAAIRASGGSTYYADSVKGRFTISRDNAKNTVYLQMNSLKPEDTAVYYCNADIWYKTYDYWGQGTQVTVSS

high polyreactivity
high polyreactivity
low polyreactivity
